TARGET DESC: Melanocortin receptor 4 (Homo sapiens) (UniProt P32245)
Sequence (P32245 whole entry, looked up): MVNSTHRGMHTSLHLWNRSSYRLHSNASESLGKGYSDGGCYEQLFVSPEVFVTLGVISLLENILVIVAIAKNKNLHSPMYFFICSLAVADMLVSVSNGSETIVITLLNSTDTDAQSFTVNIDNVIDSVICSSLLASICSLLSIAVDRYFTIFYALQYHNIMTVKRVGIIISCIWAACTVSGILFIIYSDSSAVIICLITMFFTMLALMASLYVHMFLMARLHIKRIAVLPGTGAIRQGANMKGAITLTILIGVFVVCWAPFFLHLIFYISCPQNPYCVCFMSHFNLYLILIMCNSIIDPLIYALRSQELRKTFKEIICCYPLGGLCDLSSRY
EXPERIMENT DESCRIPTION: MC4R beta-arrestin agonists, retest, confirmation, cell-based, luminescence, U2OS (AID 602192)
PROTOCOL CONDITIONS: U2OS MC4R beta-arrestin recruitment, at 8.9 µM, stronger effect = higher value, scaled DMSO 0%, Melanotan II 100%
Screen size: about 2,400 compounds; about 750 (31%) were called active. The list is a sample of the results.
READOUT: activation (%)

> print(dat)
                                    molecule  unit.spec  assay.result
 1  COc1ccc(/C=N/NC(=O)Nc2ccc3nsnc3c2)c(OC)c1          %         -0.12
 2  O=C(c1cc(-c2cccc(O)c2)on1)N1CCc2ccccc2C1          %         -1.12
 3      O=C(NC1CCCCCC1)c1cccnc1Sc1ccc(Cl)cc1          %          0.48
 4             COC(=O)c1sccc1NC(=O)CCC1CCCC1          %          0.35
 5  Cc1ccc(Nc2nnc(SCC(=O)c3cc4ccccc4o3)s2)cc1C          %          1.84
 6    O=C(CSc1ccccc1)Nc1nnc(/C=C/c2ccccc2)s1          %          32.6
 7   Cc1ccc(-c2csc(SCC(=O)Nc3cc(C)on3)n2)cc1          %          3.04
 8            Cc1ccc(NC(=O)Nc2ccccc2)c(Br)c1          %          3.05
 9  O=C(Nc1sc2c(c1-c1nc3ccccc3[nH]1)CCCC2)C1CC1          %          6.22
10      Brc1ccc(-c2csc(N/N=C/c3cccnc3)n2)cc1          %         -2.16
11  CC(=O)Nc1ccc(NC(=O)c2sc3nc4c(c(-c5ccc(C)cc5)c3c2N)CCC4)cc1          %          5.71
12  CCOC(=O)c1c(-c2ccccc2)oc2cc(Br)c(O)c(C=O)c12          %          12.2
13  Cc1ccc2nc(-c3ccncc3)cc(C(=O)Nc3ccc(OC(F)F)cc3)c2c1          %          1.63
14  COc1ccc(Cn2c(C)c(C)c(C#N)c2NC(=O)Nc2ccc(F)cc2)cc1          %          2.83
15  Cc1ccc(-c2csc(NC(=O)Cn3[nH]c(=O)c4ccccc4c3=O)n2)cc1          %          2.98
16  CCN(CC)C(=O)Oc1ccc(Br)cc1C(=O)Nc1ccc(F)c(Cl)c1          %         -3.02
17  Cc1ccc(Sc2ccc(NC(=O)c3ccc(F)cc3)cc2C#N)cc1          %          2.18
18        COc1ccc2nc(NC(=O)c3ccc(Br)s3)sc2c1          %          5.97
19  CCc1ccc(Nc2ncc3c(n2)CC(c2ccco2)CC3=O)cc1 (stereo not drawn)          %          0.77
20      CCC(=O)c1cc2c(cc1NC(=O)c1cccs1)OCCO2          %          6.01
21  Cc1ccc(-n2nc(C)c(/C=N/NC(=O)c3cccs3)c2Cl)cc1          %            12
22  COc1ccc2sc(-c3ccc(S(C)(=O)=O)cc3)c(C#Cc3cncn3C)c2c1          %          27.1
23  CCn1c(SCC(=O)Nc2cccc(F)c2)nnc1-c1cc2cc(Br)ccc2o1          %          2.27

====

TARGET DESC: Melanocortin receptor 4 (Homo sapiens) (UniProt P32245)
EXPERIMENT DESCRIPTION: MC4R beta-arrestin agonists, retest, confirmation, cell-based, luminescence, U2OS (AID 602192)
PROTOCOL CONDITIONS: U2OS MC4R beta-arrestin recruitment, at 8.9 µM, stronger effect = higher value, scaled DMSO 0%, Melanotan II 100%
Among all 2,400 compounds or so, about 750 (31%) were called active. A selection follows.
Here, each record is paired with measured activation data.
READOUT: activation (%)

> print(dat)
                            molecular.string     readout  assay.result
 1  CC(C)c1ccc2c(c1)c(SC(C)(C)C)c(CC(C)(C)C(=O)O)n2Cc1ccc(Cl)cc1  activation          6.79
 2  COc1ccc(S(=O)(=O)N/N=C\c2ccc(OC)c(COc3ccc(C)cc3[N+](=O)[O-])c2)cc1  activation          1.84
 3  CCN1C[C@@H]2[C@@H]3C(=O)N(Cc4ccccc4)C(=O)[C@@H]3[C@](Cc3ccccc3)(C(=O)OC)N2C1=NC1CCCCC1  activation            17
 4      COc1c(Cl)cc(C(=O)Nc2ccc(Cl)cn2)cc1Cl  activation          2.15
 5  COc1ccc(S(=O)(=O)N2CCC(C(=O)OCC(=O)c3ccccc3)CC2)cc1[N+](=O)[O-]  activation           5.6
 6  COc1cccc(-c2cnc3c(NC(C)=O)cc(-c4cc(F)ccc4OC)cn23)c1  activation          27.2
 7  O=C(OC12CC3CC(CC(C3)C1)C2)c1ccc(NCc2cc(O)ccc2O)cc1  activation          5.55
 8  COCCN(CCOC)S(=O)(=O)c1ccc(C(=O)Nc2nc3c(s2)CCc2ccccc2-3)cc1  activation          0.54
 9  COc1ccc(Nc2ncnc3sc(-c4ccccc4)cc23)c(OC)c1  activation           5.2
10  COc1ccc(C(=O)n2nc(-c3ccc(C)cc3)nc2N)cc1OC  activation          0.77
11  COc1ccc(OCC(=O)Nc2ccc(N3CCC(C)CC3)cc2)cc1  activation           2.6

====

TARGET DESC: Melanocortin receptor 4 (Homo sapiens)
EXPERIMENT DESCRIPTION: MC4R beta-arrestin agonists, retest, confirmation, cell-based, luminescence, U2OS (AID 602192)
PROTOCOL CONDITIONS: U2OS MC4R beta-arrestin recruitment, at 8.9 µM, stronger effect = higher value, scaled DMSO 0%, Melanotan II 100%
Screen size: about 2,400 compounds; about 750 (31%) were called active. Only a sample is shown.
Assign True to entries whose activation meets or exceeds 3%; assign False to the rest.

> print(dat)
                            molecular.string                             target.desc  assigned.class
 1  Cc1ccc(CCC(=O)Nc2ncc(Cc3cc(Cl)ccc3Cl)s2)o1  Melanocortin receptor 4 (Homo sapiens)            True
 2  COC(=O)c1sccc1NC(=O)c1cc(OC)c(OC)c(OC)c1  Melanocortin receptor 4 (Homo sapiens)            True
 3  COC(=O)c1c(C)[nH]c(C(=O)/C=C/c2ccc(Cl)cc2)c1C  Melanocortin receptor 4 (Homo sapiens)           False
 4  Cc1ccc(-n2nc3cc(Cl)c(NC(=O)c4ccco4)cc3n2)cc1  Melanocortin receptor 4 (Homo sapiens)           False
 5  COc1ccc(C(=O)c2oc3ccc(Br)cc3c2NC(C)=O)cc1  Melanocortin receptor 4 (Homo sapiens)           False
 6  CC(=O)c1cccc(-c2cnc3c(NC=O)cc(-c4ccc(N(C)C)cc4)cn23)c1  Melanocortin receptor 4 (Homo sapiens)            True
 7  CN(C)CCNC(=O)c1cccc(-c2cnc3c(NC=O)cc(-c4cccc(C(F)(F)F)c4)cn23)c1  Melanocortin receptor 4 (Homo sapiens)            True
 8  CN(C)C(=O)c1cccc(-c2cnc3c(NC=O)cc(-c4ccc(F)cc4)cn23)c1  Melanocortin receptor 4 (Homo sapiens)            True
 9  O=C(Nc1ccc2oc(-c3ccc4ccccc4c3)nc2c1)c1cccs1  Melanocortin receptor 4 (Homo sapiens)            True
10  CCOC(=O)c1nn(-c2ccccc2F)c2nc(Nc3ccccc3)cc(=O)n12  Melanocortin receptor 4 (Homo sapiens)           False

====

TARGET DESC: Melanocortin receptor 4 (Homo sapiens)
EXPERIMENT DESCRIPTION: MC4R beta-arrestin agonists, retest, confirmation, cell-based, luminescence, U2OS (AID 602192)
PROTOCOL CONDITIONS: U2OS MC4R beta-arrestin recruitment, at 8.9 µM, scaled DMSO 0%, Melanotan II 100%
Among all 2,400 compounds or so, about 750 (31%) were called active.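 Rule for the calls: active = mean activation across replicates above the hit cutoff set in the earlier primary screen (cut at about 8% in these data); inactive = the rest.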 A selection follows.
Outcome codes: active, inactive

> print(dat)
                           molecular.string  assigned.class
1         Fc1ccccc1/C=N/Nc1cc(N2CCCCC2)ncn1        inactive
2  COc1cc(/C=C2\Oc3ccc(C#Cc4ccc(O)cc4)cc3C2=O)cc(OC)c1          active
3  CCOC(=O)c1c(-c2ccc(C)cc2C)csc1NC(=O)CSc1nnnn1C        inactive
4  O=C(Cn1cnc2c(nnn2-c2ccccc2)c1=O)N1CCC(Cc2ccccc2)CC1        inactive
5     CSc1nc2sc3c(c2c(=O)[nH]1)CCc1ccccc1-3          active
6  Cc1cccc(NC(=O)Nc2cccc(Oc3c(F)c(F)c(F)c(F)c3F)c2)c1        inactive
